experimental.system: T1, T25-HP1492 (Nfu) (Helicobacter pylori strain 26695, UniProt O26025 2-89)
T1 sequence (looked up): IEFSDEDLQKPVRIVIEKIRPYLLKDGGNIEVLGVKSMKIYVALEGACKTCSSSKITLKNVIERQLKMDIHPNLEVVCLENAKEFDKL
experiment.notes: two-hybrid
Give growth OD595 in M63-maltose for every item shown.
Answer with the value and then the unit.

Ask | Please give measured growth OD595 in M63-maltose of the following entry: T18-HP0585 (natural protein, Helicobacter pylori strain 26695, UniProt O25307 2-218, looked up) KMGLKRAKTHQKAQQIKELLLKHYPNQTTELRHKNPYELLVATILSAQCTDARVNQITPKLFEKYPSVNDLALASLEEVKEIIKSVSYFNNKSKHLISMAQKVVRDFKGVIPSTQKELMSLDGVGQKTANVVLSVCFDANCIAVDTHVFRATHRLGLSNAKDPIKTEEELSDLFKDNLSKLHHALILFGRYTCKAKNPLCGACFLKEFCVSKASFKA
Reply | 0.06 OD595

Ask | Please give measured growth OD595 in M63-maltose of the following entry: T18-HP0207 (natural protein, Helicobacter pylori strain 26695, UniProt O24999 2-368, looked up) LTQEDVLNALKTIIYPNFEKDIVSFGFVKNITLHDDQLGLLIEIPSSSEETSAILRENISKAMQEKGVKALNLDIKTPPKPQAPKPTTKNLAKNIKHVVMISSGKGGVGKSTTSVNLSIALANLNQKVGLLDADVYGPNIPRMMGLQSADVIMDPSGKKLIPLKAFGVSVMSMGLLYDEGQSLIWRGPMLMRAIEQMLSDIIWGDLDVLVVDMPPGTGDAQLTLAQAVPLSAGITVTTPQIVSLDDAKRSLDMFKKLHIPIAGIVENMGSFVCEHCKKESEIFGSNSMSELLEAYHTQILAKLPLEPKVRLGGDRGEPIVISHPNSVSAKIFEKMAQDLSAFLERVKKEKLADNKDIQPTQTHACSH
Reply | 0.21 OD595
